Test system: liver cancer cells Hep G2
measurement.protocol: MTT cytotoxic activity assay, Hep G2
Format: cell-based
setup.conditions: Homo sapiens; HepG2 cells, MTT, 72 h incubation; read-out: IC50 cytotoxicity HepG2
Entries and their measured pIC50 follow.
Please keep in mind that pIC50 is minus log10 of the molar concentration; only the number is needed.

Answered examples (3):
C/C1=C\Cc2c(cc(O)c3c2C[C@@H](C)OC3=O)OC(C)(C)[C@@H](O)CC/C(C)=C/CC1	4.36
COc1cccc2c1C(=O)c1c(O)c3c(c(O)c1C2=O)C[C@@](O)(C(=O)CO)C[C@@H]3O[C@H]1C[C@H](N)[C@H](O)[C@H](C)O1 [adriamycin, Adriamycin, reference compound]	5.92
CO[C@H](c1cc2c([nH]1)C(=O)c1cc([C@H](OC)C(C)C)[nH]c1C2=O)C(C)C	4.24

Record CC(C)C(=O)c1cc2c([nH]1)C(=O)c1cc([C@H](O)C(C)C)[nH]c1C2=O . Reported pIC50: 3.95

The compound listed as CO[C@@H](c1cc2c([nH]1)C(=O)c1cc([C@H](O)C(C)C)[nH]c1C2=O)C(C)C shows pIC50 equal to 4.07

# compound COC(=O)[C@]12Oc3ccc(-c4ccc(O)c5c4O[C@@]4(C(=O)OC)C(=C(O)C[C@@H](C)[C@@H]4O)C5=O)c(O)c3C(=O)C1=C(O)C[C@@H](C)[C@@H]2O ; its pIC50 = 6.67

----------
Tested on: RAW264.7 cells
measurement.protocol: MTT cell viability of RAW264.7 cells (non-toxic concentrations)
Format: cell-based
setup.conditions: 24 h
measurement.type: Non-Toxic Concentrations

CC(C)C(=O)c1cc2c([nH]1)C(=O)c1cc([C@H](O)C(C)C)[nH]c1C2=O [Compound 1, talaroterreusinone A]	3.04 to 304.87 µM

Lab note: C/C1=C\Cc2c(cc(O)c3c2C[C@@H](C)OC3=O)OC(C)(C)[C@@H](O)CC/C(C)=C/CC1 [Compound 6, chrysomutanin] gave Non-Toxic Concentrations of 2.41 to 241.54 µM

Record summary for CO[C@@H](c1cc2c([nH]1)C(=O)c1cc([C@H](O)C(C)C)[nH]c1C2=O)C(C)C [Compound 2, Talaroterreusinone B] : reported Non-Toxic Concentrations = 2.90 to 190.69 µM

Sample CC(O)Cc1cc(O)c2c(c1)C(=O)c1cc(O)cc(O)c1C2=O (stereo not drawn) [Compound 5, isorhodoptilometrin] ; Non-Toxic Concentrations observed: 3.18 to 318.47 µM

Kindly note the recorded Non-Toxic Concentrations for CO[C@H](c1cc2c([nH]1)C(=O)c1cc([C@H](OC)C(C)C)[nH]c1C2=O)C(C)C [Compound 3, terreusinone D] , which is 2.79 to 279.32 µM

The recorded Non-Toxic Concentrations for entry Oc1ccc(/C=C/c2cc(O)cc(O)c2)cc1 [resveratrol, reference compound] equals 0.43 to 109.52 µM
